- Test system: Ipomoea hederacea (IPOHE)
- protocol.notes: Pre-emergence herbicidal glasshouse test on Ipomoea hederacea
- Assay type: in vivo
- measurement.parameters: pre-emergence; 1000 g/h; evaluated after 13 days
The compounds listed here are annotated with their PRE Application IPOHE herbicidal damage (five point scale).

>>> result("Cn1ncc(-n2ccc(O)c(C#N)c2=O)c(O)c1=O")
"5 (5=80-100% damage)"
>>> result("Cn1ncc(-c2ccc(S(C)(=O)=O)c(F)c2Cl)c(O)c1=O")
"2 (2=20-39% damage)"
>>> result("CCn1ncc(-c2c(Cl)ccc(Cl)c2Cl)c(O)c1=O")
"1 (1=0-19% damage)"
>>> result("Cn1ncc(-n2ccc(C(F)(F)F)c(-c3ccccc3)c2=O)c(O)c1=O")
"3 (3=40-59% damage)"
>>> result("Cn1ncc(-c2ccc(C(F)(F)F)cc2C(F)(F)F)c(O)c1=O")
"1 (1=0-19% damage)"

Asked: Record request: PRE Application IPOHE herbicidal damage (five point scale) value, item `CN(C)c1nc(C(F)(F)F)ccc1-c1cnn(C)c(=O)c1O`
Given back: 2 (2=20-39% damage)

Asked: Reported PRE Application IPOHE herbicidal damage (five point scale) for `COc1ccc(Cn2cccc(-c3cnn(C)c(=O)c3O)c2=O)cc1` : what is it?
Given back: 1 (1=0-19% damage)

Origin of measurements: patent US9693556B2
